Provide the reported EC50 of each item.
# System: SARS-CoV
# Test method notes: Antiviral activity against SARS coronavirus infected in primary HAE cells
# Assay type: functional, organism-based
# Experimental context: Severe acute respiratory syndrome-related coronavirus
Express your answer in nM, writing the number without its unit.

Query block: So what's the measured EC50 for this one? CCC(CC)COC(=O)[C@H](C)N[P@](=O)(OC[C@H]1O[C@@](C#N)(c2ccc3c(N)ncnn23)[C@H](O)[C@@H]1O)Oc1ccccc1
Result block: 69

Query block: So what's the measured EC50 for this one? N#C[C@@]1(c2ccc3c(N)ncnn23)O[C@H](COP(=O)(O)OP(=O)(O)OP(=O)(O)O)[C@@H](O)[C@H]1O
Result block: 180

* * *

# Test method notes: Cytotoxic activity in HAE cells
# Assay type: cell-based
# Experimental context: human
Endpoint: CC50

Query block: So what's the measured CC50 for this one? CCC(CC)COC(=O)[C@H](C)N[P@](=O)(OC[C@H]1O[C@@](C#N)(c2ccc3c(N)ncnn23)[C@H](O)[C@@H]1O)Oc1ccccc1
Result block: > 10 µM

Query block: So what's the measured CC50 for this one? N#C[C@@]1(c2ccc3c(N)ncnn23)O[C@H](COP(=O)(O)OP(=O)(O)OP(=O)(O)O)[C@@H](O)[C@H]1O
Result block: > 100 µM
